Sourced from the supplement of paper PMC8728848

# tested_target: Neu5Ac(a2-6)Gal(b1-4)GlcNAc6S
# assay_remarks: glycan array binding signal (z-score within array); higher = stronger binding
# experimental_conditions: glycan notation: IUPAC condensed, linker removed
This excerpt belongs to a sample that is enriched for the strongest signals.

[
  {
    "binder": "TAL6-4LysM (Trichoderma atroviride) (protein) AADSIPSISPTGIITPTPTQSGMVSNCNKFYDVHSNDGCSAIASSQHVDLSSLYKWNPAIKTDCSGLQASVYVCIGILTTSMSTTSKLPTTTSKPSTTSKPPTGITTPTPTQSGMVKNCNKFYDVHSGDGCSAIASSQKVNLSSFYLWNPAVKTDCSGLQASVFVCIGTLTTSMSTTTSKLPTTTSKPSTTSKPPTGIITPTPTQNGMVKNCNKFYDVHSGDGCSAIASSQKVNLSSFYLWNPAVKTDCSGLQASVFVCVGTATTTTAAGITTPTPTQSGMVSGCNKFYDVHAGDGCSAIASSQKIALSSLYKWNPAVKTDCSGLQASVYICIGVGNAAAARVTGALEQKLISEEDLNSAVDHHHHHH",
    "glycan array binding signal (z-score)": 1.36
  },
  {
    "binder": "CLC (Homo sapiens), Q9UBD9 (protein) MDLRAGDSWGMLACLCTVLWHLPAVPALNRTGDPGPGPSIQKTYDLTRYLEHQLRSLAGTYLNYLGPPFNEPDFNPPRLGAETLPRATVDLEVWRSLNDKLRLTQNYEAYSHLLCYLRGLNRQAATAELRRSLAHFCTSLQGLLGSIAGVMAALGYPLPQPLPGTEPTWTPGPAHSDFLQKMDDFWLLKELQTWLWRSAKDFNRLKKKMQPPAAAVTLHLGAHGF",
    "glycan array binding signal (z-score)": -0.346
  },
  {
    "binder": "CML1 (Coprinopsis cinerea) (protein) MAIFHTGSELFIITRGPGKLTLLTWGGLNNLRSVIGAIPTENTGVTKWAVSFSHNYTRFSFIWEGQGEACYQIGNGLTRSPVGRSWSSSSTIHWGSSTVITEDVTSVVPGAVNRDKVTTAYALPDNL",
    "glycan array binding signal (z-score)": -0.334
  },
  {
    "binder": "SLLPI (Mus musculus), Q9D9X8 (protein) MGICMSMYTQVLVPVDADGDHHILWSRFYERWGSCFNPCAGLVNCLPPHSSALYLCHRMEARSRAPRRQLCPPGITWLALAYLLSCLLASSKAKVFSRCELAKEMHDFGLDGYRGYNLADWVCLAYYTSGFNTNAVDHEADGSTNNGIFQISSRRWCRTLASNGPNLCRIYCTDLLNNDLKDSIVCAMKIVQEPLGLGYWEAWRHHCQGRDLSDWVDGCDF",
    "glycan array binding signal (z-score)": 3.29
  },
  {
    "binder": "Microvirin-2 (Microcystis aeruginosa) (protein) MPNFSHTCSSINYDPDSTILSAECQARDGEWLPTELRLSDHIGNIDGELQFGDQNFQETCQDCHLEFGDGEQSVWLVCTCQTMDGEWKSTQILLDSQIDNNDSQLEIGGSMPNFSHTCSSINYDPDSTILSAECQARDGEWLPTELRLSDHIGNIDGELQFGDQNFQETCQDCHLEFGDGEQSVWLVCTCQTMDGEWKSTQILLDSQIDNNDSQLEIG",
    "glycan array binding signal (z-score)": -0.142
  },
  {
    "binder": "MUB70 (Lactobacillus reuteri) (protein) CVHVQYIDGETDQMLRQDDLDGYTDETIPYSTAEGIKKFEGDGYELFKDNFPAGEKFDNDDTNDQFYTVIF",
    "glycan array binding signal (z-score)": 2.67
  },
  {
    "binder": "EULS2 M2 (Oryza sativa) (protein) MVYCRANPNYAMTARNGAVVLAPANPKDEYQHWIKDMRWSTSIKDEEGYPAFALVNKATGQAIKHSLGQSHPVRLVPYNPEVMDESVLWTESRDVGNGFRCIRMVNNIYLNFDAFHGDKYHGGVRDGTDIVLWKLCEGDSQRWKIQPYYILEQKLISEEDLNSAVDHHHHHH",
    "glycan array binding signal (z-score)": -0.389
  },
  {
    "binder": "KISKRILTGKK [NK11 (Sus scrofa)]",
    "glycan array binding signal (z-score)": 0.729
  }
]
